# TEST_SYSTEM: T1, Mouse PD-1 extracellular domain, hFc tag (mouse, UniProt Q02242 25-169)
# T1 construct: extracellular domain; also called mPro1.ECD.hFc; not shown: human Fc tag at C-terminus
# T1 sequence (looked up): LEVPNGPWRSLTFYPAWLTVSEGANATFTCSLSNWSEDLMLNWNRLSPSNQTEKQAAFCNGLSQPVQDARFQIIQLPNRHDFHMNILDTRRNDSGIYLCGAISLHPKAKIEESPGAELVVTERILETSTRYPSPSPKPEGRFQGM
# EXPERIMENT: SPR Biacore 8K; PD-1-hFc captured on anti-human Fc chip, VHH injected; 1:1 fit

{"BINDER": "AP17R1-2H2-Z1-R1-14A1 (VHH, not shown: his- and c-Myc-tag from vector pETbac) VHH: QVQLVESGGGVVQPGGSLRLSCAASDSIDSLVNMGWYRQAPGKQRELVALIATYITHYADFVKGRFTISRDNSKNTLYLQMNSLRAEDTAVYYCYARNIIVDYWGQGTLVTVSS", "koff [s⁻¹]": 0.0047}
{"BINDER": "AP17R1-2H2-Z1-R1-29B2 (VHH, not shown: his- and c-Myc-tag from vector pETbac) VHH: QVQLVESGGGVVQPGGSLRLSCAASDSIDSLVNMGWYRQAPGKQRELVALIANYITHYADFVKGRFTISRDNSKNTLYLQMNSLRAEDTAVYYCYARNIRVDYWGQGTLVTVSS", "koff [s⁻¹]": 0.0148}
